Data provenance: patent US8735414B2

>  <MOLECULE>
CC(C)NS(=O)(=O)c1ccc(-c2c(C#N)c3ccc(OC(F)F)cc3n2CC2CC2)cn1

>  <melting point>
186 to 188 °C

$$$$
>  <MOLECULE>
Cc1cc2c(cc1F)c(C#N)c(-c1ccc(S(=O)(=O)N[C@@H](C)C(F)(F)F)cn1)n2C1CCCCC1

>  <melting point>
224 to 229 °C

$$$$
>  <MOLECULE>
CC(C)NS(=O)(=O)c1ccc(-c2c(C#N)c3cc(F)ccc3n2C2CCOC2)nc1 (centres unmarked)

>  <melting point>
185 to 188 °C

$$$$
>  <MOLECULE>
Cc1ccc2c(c1F)c(C#N)c(-c1ccc(S(=O)(=O)NC(C)(C)C(F)(F)F)cn1)n2C1CCCC1

>  <melting point>
200 to 205 °C

$$$$
>  <MOLECULE>
COc1ccc2c(c1)c(C#N)c(-c1ccc(S(=O)(=O)NC(CF)CF)cn1)n2C1CCCC1

>  <melting point>
167 to 169 °C

$$$$
>  <MOLECULE>
CC(C)(C)NS(=O)(=O)c1ccc(-c2c(C#N)c3ccc(OC(F)F)cc3n2C2CCC2)nc1

>  <melting point>
178 to 180 °C

$$$$
>  <MOLECULE>
C[C@@H](NS(=O)(=O)c1cnc(-c2c(C#N)c3ccc(OC(F)F)cc3n2C2CCC2)nc1)C(F)(F)F

>  <melting point>
112 to 114 °C

$$$$
>  <MOLECULE>
C[C@H](NS(=O)(=O)c1ccc(-c2c(C#N)c3ccc(OC(F)F)cc3n2C2CCCC2)nc1)C(F)(F)F

>  <melting point>
188 to 194 °C

$$$$
>  <MOLECULE>
N#Cc1c(-c2ccc(S(N)(=O)=O)cn2)n(CC2CC2)c2cc(OC(F)F)c(F)cc12

>  <melting point>
173 to 178 °C

$$$$
>  <MOLECULE>
Cc1cc2c(cc1F)c(C(N)=O)c(-c1ccc(S(=O)(=O)N[C@@H](C)C(F)(F)F)cn1)n2C1CCCCC1

>  <melting point>
273 to 279 °C

$$$$
>  <MOLECULE>
CC(C)(NS(=O)(=O)c1ccc(-c2c(C#N)c3ccc(OC(F)F)cc3n2C2CCC2)nc1)C(F)(F)F

>  <melting point>
165 to 171 °C

$$$$
>  <MOLECULE>
CCn1c(-c2ccc(NS(=O)(=O)C3CC3)cn2)c(C#N)c2ccc(OC(C)C)cc21

>  <melting point>
180 to 185 °C

$$$$
>  <MOLECULE>
Cc1cc2c(cc1F)c(C(=O)N(C)C)c(-c1ccc(S(=O)(=O)N[C@@H](C)C(F)(F)F)cn1)n2C1CCCC1

>  <melting point>
278 to 280 °C

$$$$
>  <MOLECULE>
Cc1cc2c(cc1F)c(C#N)c(-c1ccc(S(=O)(=O)N[C@@H](C)C(F)(F)F)cn1)n2-c1cnn(C)c1

>  <melting point>
233.7 to 239.3 °C

$$$$
>  <MOLECULE>
Cc1ccc2c(C#N)c(-c3ccc(S(=O)(=O)NC4(C(F)(F)F)CC4)cn3)n(C3CCCC3)c2c1

>  <melting point>
199 to 210 °C

$$$$
>  <MOLECULE>
N#Cc1c(-c2ncc(S(=O)(=O)NC(CF)CF)cn2)n(CC2CC2)c2cc(F)ccc12

>  <melting point>
176 to 178 °C

$$$$
>  <MOLECULE>
CC(C)NS(=O)(=O)c1cnc(-c2c(C#N)c3ccc(F)cc3n2C(C)C)nc1

>  <melting point>
158 to 160 °C

$$$$
>  <MOLECULE>
Cc1ccc2c(c1)c(C#N)c(-c1ccc(S(=O)(=O)N[C@H](C)C(F)(F)F)cn1)n2CC1CC1

>  <melting point>
166 to 172 °C

$$$$
>  <MOLECULE>
N#Cc1ccc2c(C#N)c(-c3ccc(S(=O)(=O)NC(CF)CF)cn3)n(C3CCCC3)c2c1

>  <melting point>
219 to 221 °C

$$$$
>  <MOLECULE>
Cc1ccc2c(c1)c(C#N)c(-c1ncc(S(=O)(=O)NC(CF)CF)cn1)n2CC1CC1

>  <melting point>
151 to 155 °C

$$$$
>  <MOLECULE>
N#Cc1c(-c2ccc(S(=O)(=O)NC(CF)CF)cn2)n(C2CCCC2)c2cc(OC(F)F)ccc12

>  <melting point>
177 to 178 °C

$$$$
>  <MOLECULE>
N#Cc1c(-c2ccc(S(=O)(=O)NC3(C(F)(F)F)CCC3)cn2)n(C2CCC2)c2cc(OC(F)F)ccc12

>  <melting point>
162 to 168 °C

$$$$
>  <MOLECULE>
Cc1ccc2c(c1)c(C#N)c(-c1ccc(S(=O)(=O)N[C@H](C)C(F)(F)F)cn1)n2C1CCCCC1

>  <melting point>
180 to 189 °C

$$$$
>  <MOLECULE>
CCc1ccc2c(C#N)c(-c3ccc(S(=O)(=O)NC(C)(C)C(F)(F)F)cn3)n(C3CCC3)c2c1

>  <melting point>
160 to 165 °C

$$$$
>  <MOLECULE>
CCNC(=O)c1c(-c2ccc(S(=O)(=O)N[C@@H](C)C(F)(F)F)cn2)n(C2CCCC2)c2cc(C)c(F)cc12

>  <melting point>
160 to 162 °C

$$$$
>  <MOLECULE>
Cc1cc2c(cc1F)c(C(N)=O)c(-c1ccc(S(=O)(=O)NC3(C(F)(F)F)CC3)cn1)n2C1CCCC1

>  <melting point>
220 to 221 °C

$$$$
>  <MOLECULE>
Cc1ccc2c(C#N)c(-c3ccc(S(=O)(=O)NC4(C(F)(F)F)CCC4)cn3)n(C3CCCC3)c2c1

>  <melting point>
214 to 218 °C

$$$$
>  <MOLECULE>
NC(=O)c1c(-c2ccc(S(=O)(=O)NC3(C(F)(F)F)CC3)cn2)n(C2CCC2)c2cc(OC(F)F)c(F)cc12

>  <melting point>
197 to 200 °C

$$$$
>  <MOLECULE>
Cc1ccc2c(C#N)c(-c3ccc(S(=O)(=O)N[C@@H](C)C4CC4)cn3)n(C3CCC3)c2c1

>  <melting point>
181 to 187 °C

$$$$

###

Documented melting point across a set of compounds
PARAMETER_MEASURED: melting point

>  <MOLECULE_SMILES>
CCc1cc2c(cc1F)c(C#N)c(-c1ncc(S(=O)(=O)NC(CF)CF)cn1)n2C1CCCC1

>  <RESULT>
184 to 185 °C

$$$$
>  <MOLECULE_SMILES>
N#Cc1c(-c2ccc(S(=O)(=O)NC(CF)CF)cn2)n(C2CCC2)c2cc(Cl)ccc12

>  <RESULT>
200 to 202 °C

$$$$
>  <MOLECULE_SMILES>
Cc1cc2c(cc1F)c(C#N)c(-c1ccc(S(=O)(=O)N[C@@H](C)C(F)(F)F)cn1)n2-c1ccc([N+](=O)[O-])cn1

>  <RESULT>
260 to 263 °C

$$$$
>  <MOLECULE_SMILES>
C[C@H](NS(=O)(=O)c1ccc(-c2c(C#N)c3ccc(C4CC4)cc3n2C2CCC2)nc1)C1CC1

>  <RESULT>
170 to 176 °C

$$$$
>  <MOLECULE_SMILES>
Cc1cc2c(cc1F)c(C#N)c(-c1ccc(S(=O)(=O)N[C@@H](C)C(F)(F)F)cn1)n2-c1ccncc1F

>  <RESULT>
204.2 to 210.5 °C

$$$$
>  <MOLECULE_SMILES>
CCCn1c(-c2ccc(S(=O)(=O)NC(C)C)cn2)c(C#N)c2ccc(OC(F)F)cc21

>  <RESULT>
166 to 170 °C

$$$$
>  <MOLECULE_SMILES>
NC(=O)c1c(-c2ccc(S(=O)(=O)Nc3ccccc3)cn2)n(C2CCC2)c2cc(OC(F)F)c(F)cc12

>  <RESULT>
204 to 206 °C

$$$$

###

Documented melting point across a set of compounds
PARAMETER_MEASURED: melting point

>  <COMPOUND>
CC(C)(C)S(=O)(=O)Nc1ccc(-c2c(C(N)=O)c3c(F)cc(C4CC4)cc3n2-c2ccc(F)cc2)cn1 [compound 1105]

>  <RESULT>
290 to 295 °C

$$$$
>  <COMPOUND>
CCc1cc2c(cc1F)c(C#N)c(-c1ccc(S(=O)(=O)NC(C)(C)C)cn1)n2-c1cnccn1 [compound 899]

>  <RESULT>
196 to 201 °C

$$$$
>  <COMPOUND>
C[C@H](NS(=O)(=O)c1ccc(-c2c(C#N)c3cc(F)ccc3n2C2CCCCC2)nc1)C(F)(F)F [compound 410]

>  <RESULT>
209 to 211 °C

$$$$
>  <COMPOUND>
COC(=O)c1c(-c2ccc(S(=O)(=O)N[C@@H](C)C(F)(F)F)cn2)n(C2CCCCC2)c2ccc(F)cc12 [compound 717]

>  <RESULT>
232 to 240 °C

$$$$
>  <COMPOUND>
C[C@H](NS(=O)(=O)c1cnc(-c2c(C#N)c3cc(F)ccc3n2C2CCCCC2)nc1)C1CC1 [compound 528]

>  <RESULT>
219 to 221 °C

$$$$
>  <COMPOUND>
CCS(=O)(=O)Nc1ccc(-c2c(C#N)c3ccc(OC(C)C)cc3n2CC2CC2)nc1 [compound 279]

>  <RESULT>
149 to 154 °C

$$$$
>  <COMPOUND>
CC(C)NS(=O)(=O)c1cnc(-c2c(C#N)c3ccc(C4CC4)cc3n2C2CCC2)nc1 [compound 71]

>  <RESULT>
192 to 193 °C

$$$$
